Assignment: determine reported pEC50 for the given binders.
Biological target: T1, cynoGITR ECD hFc (Macaca fascicularis)
T1 construct: cynomolgus GITR, extracellular domain, Gln20-Glu155, NCBI XP_005545180.1; also called cynoGITR protein; cGITR; source: FreeStyle 293F, transiently transfected, purified by protein A
T1 chain: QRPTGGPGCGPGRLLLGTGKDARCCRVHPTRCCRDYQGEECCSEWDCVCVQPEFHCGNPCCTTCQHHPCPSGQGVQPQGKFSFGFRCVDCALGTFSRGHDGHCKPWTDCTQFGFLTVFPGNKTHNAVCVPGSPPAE
Assay: ELISA; indirect ELISA; antigen hFc fusion protein coated on 96-well plates (1 μg·mL^−1 overnight at 4 °C in Fig. 3B), antibody added, detected with anti-rat IgG/hIgG-peroxidase antibody
Settings: both partners purified
Give bare numbers, as −log10 of the molar value.

Consider the following illustrative entries.
mAb070 (antibody, V domains shown, as the VH of m14; as the VL of m14; Human-murine chimeric antibody from H2L2 mice: human variable regions, rat constant regions; source: hybridoma cell culture supernatant, purified (Protein A)) VH: QVQLVESGGGVVQPGRSLRLSCAASGFTFSSYGMHWVRQAPGKGLEWVAVIWYETSNKFYVDSVKGRFTISRDNSKNTLYLQMNSLRAEDTAVYYCARYGASSGWYWYFDLWGRGTLVTVSS VL: DIQLTQSPSFLSASVGDRVTITCRASQGISSFLAWYQQKPGKAPKLLIYAASTLQSGVPSRFSGSGSGTEFTLTISSLQPEDFATYCCQQLNSYPFTFGQGTKLEIK
10.60
hab064 (antibody, V domains shown, 3503‐hab064‐VH; 3503‐hab064‐Vk; Whole antibody, human IgG1 heavy chain constant region, human kappa light chain constant region; source: FreeStyle 293F, transiently co-transfected, purified from culture supernatant) VH: QVQLVESGGGVVQPGRSLRLSCAASGFTFSSYGMHWVRQAPGKGLEWVAVIWYETSNKYYADSVKGRFTISRDNSKNTLYLQMNNLRAEDTAVYYCARYGGNSGWYWYFDLWGRGTLVTVSS VL: DIQLTQSPSFLSASVGDRVTITCRASQGISSFLAWYQQKPGTAPKLLIYAASTLQSGVPSRFSGSGSGTEFTLTISSLQPEDFATYCCQQLNSYPFTFGQGTKLEIK
9.97

// for each binder below, give its pEC50
1. hab070e1 (antibody, V domains shown, as the VH of m14 (3503‐hab070‐VH); 3503‐hab070‐Vk(C2Y); the substitution is against the VL of m14 (Cys in FR3 of VL); position not given; Whole antibody, human IgG1 heavy chain constant region, human kappa light chain constant region; also called hab70e1; source: FreeStyle 293F, transiently co-transfected, purified from culture supernatant) VH: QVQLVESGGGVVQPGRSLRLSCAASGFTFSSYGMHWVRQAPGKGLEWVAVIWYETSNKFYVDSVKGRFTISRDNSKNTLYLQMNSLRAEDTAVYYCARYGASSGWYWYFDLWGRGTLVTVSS VL: DIQLTQSPSFLSASVGDRVTITCRASQGISSFLAWYQQKPGKAPKLLIYAASTLQSGVPSRFSGSGSGTEFTLTISSLQPEDFATYYCQQLNSYPFTFGQGTKLEIK
2. hab064e1 (antibody, V domains shown, 3503‐hab064‐VH(N2S); the substitution is against the VH of m13; position not given; 3503‐hab064‐Vk(T2K/C2Y); the substitutions are against the VL of m13; positions not given; Whole antibody, human IgG1 heavy chain constant region, human kappa light chain constant region; source: FreeStyle 293F, transiently co-transfected, purified from culture supernatant) VH: QVQLVESGGGVVQPGRSLRLSCAASGFTFSSYGMHWVRQAPGKGLEWVAVIWYETSNKYYADSVKGRFTISRDNSKNTLYLQMNSLRAEDTAVYYCARYGGNSGWYWYFDLWGRGTLVTVSS VL: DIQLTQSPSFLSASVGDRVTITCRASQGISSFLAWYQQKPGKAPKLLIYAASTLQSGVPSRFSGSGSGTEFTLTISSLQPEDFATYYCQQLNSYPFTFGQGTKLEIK
3. hab076 (antibody, V domains shown, 3503‐hab076‐VH; 3503‐hab076‐Vk; Whole antibody, human IgG1 heavy chain constant region, human kappa light chain constant region; source: FreeStyle 293F, transiently co-transfected, purified from culture supernatant) VH: QVQLVESGGGVVQPGRSLRLSCAASGFTFSSYGMHWVRQAPGKGLEWVAVIWYETSNKYYADSVKGRFTISRDNSKNTLYLQMNSLRAEDTAVYYCARYGASSGWYWYFDLWGRGTLVTVSS VL: DIQLTQSPSFLSASVGDRVTITCRASQGISSYLAWYQQKPGKAPKLLIYAASTLQSGVPSRFSGSGSGTEFTLTISSLQPEDFATYCCQQLNSYPFTFGQGTKLEIK

A.
[9.95, 10.02, 10.00]
